Data provenance is patent US20230116602A1.

System: drug-resistant cell lines of Table 3
Assay Procedure: Cell line growth retardation assay, resistant cohort
Assay type: cell-based, Human
Condition Set: arithmetic mean of IC50s over the resistant cohort of Table 3, 6 days growth; read-out: AvgRes IC50
pIC50: −log10 of the molar value.
Would you mind telling me the reported pIC50 of each entry?

INSERT INTO assay_data (compound, result) VALUES
  ('Cc1c(-c2c(-c3ccc(F)cc3)ncc3snc(O[C@H](Cc4ccccc4OCc4ccnn4CC(F)(F)F)C(=O)O)c23)ccc(OCCN2CCN(C)CC2)c1Cl (single isomer, unassigned)', '< 5.30');

List reported pIC50 for each of these compounds:
1. Cc1c(-c2c(Cl)ncc3snc(O[C@H](Cc4ccccc4OCc4ccnn4CC(F)(F)F)C(=O)O)c23)ccc(OCCN2CCN(C)CC2)c1Cl (single isomer, unassigned)
2. Cc1c(-c2c(-c3ccc(F)s3)ncc3snc(O[C@H](Cc4ccccc4OCc4ccnn4CC(F)(F)F)C(=O)O)c23)ccc(OCCN2CCN(C)CC2)c1Cl (single isomer, unassigned)
3. COc1cccc(-c2ncc3snc(O[C@H](Cc4ccccc4OCc4ccnc(-c5ccccc5OC)n4)C(=O)O)c3c2-c2ccc(OC[C@@H]3CCCN3C)c(Cl)c2C)c1 (atropisomer, axis not shown)

["< 5.30", "< 5.30", "< 5.30"]
